- System: HCC-827
- procedure-details: relative viability (nuclei count vs DMSO), 5 days (fraction); higher = more cells survive
- experimental-setup: first compound 0.05 µM
reported-endpoint: relative viability
# answer = number (no unit)

Query for HCC-827: what relative viability does the record show for Nc1ccn([C@@H]2O[C@H](CO)[C@@H](O)[C@@H]2O)c(=O)n1 [Cytarabine] + C[C@]1(O)C[C@@H](c2nc(-c3ccc4ccc(-c5ccccc5)nc4c3)c3c(N)nccn32)C1 [Linsitinib] (partner 1 µM) ?
0.488

Query for HCC-827: what relative viability does the record show for COc1cc2nccc(Oc3ccc(NC(=O)Nc4cc(C)on4)c(Cl)c3)c2cc1OC [Tivozanib] + O=C(c1cc(Cc2n[nH]c(=O)c3ccccc23)ccc1F)N1CCN(C(=O)C2CC2)CC1 [Olaparib] (partner 8 µM) ?
0.623

Query for HCC-827: what relative viability does the record show for COc1cc2nccc(Oc3ccc(NC(=O)Nc4cc(C)on4)c(Cl)c3)c2cc1OC [Tivozanib] + COc1cccc2cc(-c3nc([C@H]4CC[C@H](C(=O)O)CC4)n4ncnc(N)c34)[nH]c12 [OSI-027] (partner 0.5 µM) ?
0.766

Query for HCC-827: what relative viability does the record show for Nc1ccn([C@@H]2O[C@H](CO)[C@@H](O)[C@@H]2O)c(=O)n1 [Cytarabine] + CC(=O)Nc1cccc(-n2c(=O)n(C3CC3)c(=O)c3c(Nc4ccc(I)cc4F)n(C)c(=O)c(C)c32)c1 [Trametinib] (partner 0.02 µM) ?
0.239

###

- Tested on: NCI-H2023
- procedure-details: relative viability (nuclei count vs DMSO), 5 days (fraction); higher = more cells survive
- experimental-setup: first compound 0.000632 µM
Consider the following compounds; for each one, report its relative viability.
# answer = number (no unit)

I would be grateful if you could share the reported relative viability for CC(=O)O[C@@]12CO[C@@H]1C[C@H](O)[C@@]1(C)C(=O)[C@H](O)C3=C(C)[C@@H](OC(=O)[C@H](O)[C@@H](NC(=O)OC(C)(C)C)c4ccccc4)C[C@@](O)([C@@H](OC(=O)c4ccccc4)[C@H]21)C3(C)C [Docetaxel] + CC(C)C[C@H](NC(=O)[C@H](Cc1ccccc1)NC(=O)c1cnccn1)B(O)O [Bortezomib] (partner 0.002 µM) .
0.456

I would be grateful if you could share the reported relative viability for CC(=O)O[C@@]12CO[C@@H]1C[C@H](O)[C@@]1(C)C(=O)[C@H](O)C3=C(C)[C@@H](OC(=O)[C@H](O)[C@@H](NC(=O)OC(C)(C)C)c4ccccc4)C[C@@](O)([C@@H](OC(=O)c4ccccc4)[C@H]21)C3(C)C [Docetaxel] + C[C@@H](Oc1cc(-c2cnn(C3CCNCC3)c2)cnc1N)c1c(Cl)ccc(F)c1Cl [Crizotinib] (partner 1 µM) .
0.451

I would be grateful if you could share the reported relative viability for CC(=O)O[C@@]12CO[C@@H]1C[C@H](O)[C@@]1(C)C(=O)[C@H](O)C3=C(C)[C@@H](OC(=O)[C@H](O)[C@@H](NC(=O)OC(C)(C)C)c4ccccc4)C[C@@](O)([C@@H](OC(=O)c4ccccc4)[C@H]21)C3(C)C [Docetaxel] + CCNC(=O)c1noc(-c2cc(C(C)C)c(O)cc2O)c1-c1ccc(CN2CCOCC2)cc1 [Luminespib] (partner 0.01 µM) .
0.346

Taken from the supplement of paper PMC10307832.
